The measured values listed here are drawn from patent US20220177886.

# TARGET OR TEST SYSTEM: CotEC chitinase (rCotEC, AB45, aa381-712 of CotE) (Clostridium difficile)
# EXPERIMENTAL DETAILS: SPR
# CONDITIONS: tags: His-tagged (Ni-NTA)
QUANTITY KIND: Kd (nM)
Could you give me the number in nM? Just the number is fine.

Endpoint output: Kd of CotEC Chitinase D11.1 (ssDNA) DNA: AACTGCCTGGTAAATCGATGACCGCTGCCTCGCCTGAGTAATCATCGTACTATCCACAGGTC . Value?
295
